biological target: T1, human A-beta(1-40) peptide, monomeric (BAM) (human, biotin at the C-terminus in capture ELISA, SPR and TR-FRET; not biotinylated where coated directly (Example 7)); test: TR-FRET competition, labelled ABII60A10; extrapolated curve
T1 construct: synthetic peptide (Anaspec), TFA/HFIP treated to give monomer; also called monomeric A-beta
Measure name: pIC50
Convention used: pIC50 is expressed as -log10 of the molar concentration.

INPUT: Looking for the measured pIC50 of ABII1E11 (VHH) VHH: EVQLVESGGGLVQPGGSLRLSCAASGRTFSDYNMGWFHQAPGKEREIVAAISRSGRSTYYTVSVEGRFTISRDNAKNTVDLEMNSLKPEDTGIYYCAANSAGRAINLPLYKYWGQGTQVTVSS , can you help?
OUTPUT: 6.07

INPUT: Looking for the measured pIC50 of ABII35D2 (VHH) VHH: EVQLVESGGGLVQAGGSLRLSCVASGLTFSSYNMGWFRQAPGKEREFVAAISRSGGSTYYTDSVKGRFTISRDSSKNTVYLQMNSLKPEDTADYYCAAALFGSAINLLSEYRYWGQGTQVTVSS , can you help?
OUTPUT: 6.11

INPUT: Looking for the measured pIC50 of ABII35C7 (VHH) VHH: EVQLVESGGGLVQPGGSLRLSCAASGRTFSIYNMGWFRQAPGKEREFVAAISRSGSSTYYGDSVKGRFTISRDNAKKTVYLQMNSLKPEDTAVYHCAAARFGTPINTRGSYDYWGQGTQVTVSS , can you help?
OUTPUT: 6.69

INPUT: Looking for the measured pIC50 of ABII42E10 (VHH) VHH: EVQLVESGGGLVQPGGSLRLSCAASGLTFTLYTMGWFRQAPGKEREFVAAISASGGTTYYADSVKGRFALSRDNAKNTVFLQMNTLKPEDTAEYLCAAAFRGFAINTPTSYNYWGQGTQVTVSS , can you help?
OUTPUT: 6.69
